assay-protocol: A quantitative high throughput screen for small molecules that induce DNA re-replication in MCF 10a normal breast cells. Also: nearly all actives have a fitted effect of over 50% in size.
setup-conditions: MCF 10A DNA re-replication, Hoechst nuclear intensity, 48 h; series mostly up to 46.1 µM
Out of some 350,000 compounds screened, about 9,900 (2.8%) were called active. Inconclusive results (about 15%) are left out. Calls follow the shape of the dose curve; as a rule, active = well fitted activation curve with a large enough effect; inconclusive = small, poorly fitted or top-dose-only effect; inactive = no such curve, though single readings can be large or run the other way. For the sample, actives were picked, then their nearest neighbours and some compounds at random.
// classify into active, inactive

>  <compound>
COc1cccc(C(=O)c2cc3ccc(O)cc3oc2=O)c1

>  <assigned-label>
inactive

$$$$
>  <compound>
CN(C)C(=O)CCc1ccc2c3c([nH]c2c1)[C@]1(C)[C@@H](C(=O)N2CCCCC2)C[C@H](CC(=O)NCCC2=CCCCC2)C(=O)N1CC3

>  <assigned-label>
inactive

$$$$
>  <compound>
C[C@H](CO)N1C[C@H](C)[C@@H](CN(C)S(=O)(=O)c2ccc(F)cc2)Oc2ccc(NC(=O)CCC(F)(F)F)cc2C1=O

>  <assigned-label>
inactive

$$$$
>  <compound>
O=C(Nc1ccccc1)Oc1cccc2cccnc12

>  <assigned-label>
active

$$$$
>  <compound>
OCc1ccc(OCCCOc2cccc3cccnc23)cc1

>  <assigned-label>
inactive

$$$$

Any idea what this test logged for Cc1ccc(C)c(OCC(=O)NNC(=O)C2CCC2)c1 ?
inactive

Would you mind doing O=C(NCCN1CCOCC1)c1ccc(/C=C2\Sc3ccccc3N(Cc3ccc(F)cc3)C2=O)cc1 as well?
active

Try CCOC(=O)CCCN1CC(O)=C(c2nc3ccccc3s2)C1=N next.
inactive

Next up: COC1C(CO)OC(n2cnc3c(=S)nc(N)[nH]c32)C1O (stereo not drawn)
inactive

Item: CC(Oc1ccc2c(-c3ccccc3)cc(=O)oc2c1)C(=O)NC(Cc1c[nH]c2ccccc12)C(=O)O (stereo not drawn)
inactive

Repeat for the following compound: COc1ccc(NC(=O)Nc2cccc3cccnc23)cc1
inactive

Same thing, different compound: Cc1ccc(S(=O)(=O)NCCNC(C)c2ccc(Br)cc2)cc1 (stereo not drawn)
inactive

====

assay-protocol: A quantitative high throughput screen for small molecules that induce DNA re-replication in MCF 10a normal breast cells. Also: nearly all actives have a fitted effect of over 50% in size.
setup-conditions: MCF 10A DNA re-replication, Hoechst nuclear intensity, 48 h; series mostly up to 46.1 µM
In all, about 350,000 compounds went through this assay and about 9,900 (2.8%) were called active. Roughly 15% stayed inconclusive and do not appear here. Calls follow the shape of the dose curve; as a rule, active = well fitted activation curve with a large enough effect; inconclusive = small, poorly fitted or top-dose-only effect; inactive = no such curve, though single readings can be large or run the other way. Shown is part of a subset that was picked to be rich in actives.
Select the matching outcome among TRUE for active, FALSE for inactive

Reference set, count: 5
>  <compound>
C=CCSc1nc2ccccc2[nH]1

>  <assigned-label>
FALSE

$$$$
>  <compound>
CC(CC(=O)Nc1cc(C(F)(F)F)ccc1Cl)c1ccccc1 (stereo not drawn)

>  <assigned-label>
FALSE

$$$$
>  <compound>
O=C1c2ccccc2C(=O)N1CCCCCCN1C(=O)c2ccccc2C1=O

>  <assigned-label>
FALSE

$$$$
>  <compound>
Cc1nn(Cc2ccccc2)c2c1C(c1ccccc1)C(C#N)=C(N)O2 (stereo not drawn)

>  <assigned-label>
FALSE

$$$$
>  <compound>
O=C(NCCN1CCOCC1)c1ccc2c(c1)N(Cc1ccc(Cl)cc1)CCS2

>  <assigned-label>
FALSE

$$$$

Turning now to a further record.
For CCC1=C(C(=O)OC)C(c2cc(OC)ccc2OC)C(C#N)=C(N)O1 (stereo not drawn) , what call appears in the results of this test?
FALSE
